For each record, write down the corresponding inhibition.
# System: intestinal alkaline phosphatase [Mus musculus]
# test.summary: mouse intestinal phosphatase enzyme inhibition – biochemical, luminescence, single concentration, confirmation (AID 434971);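 further: plate controls were DMSO wells with enzyme for no effect and buffer wells lacking enzyme for full effect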
# condition.context: purified mouse IAP, CDP-Star luminescence, 30 min; at 10 µM; hits give high values
Screen size: about 11,000 compounds; about 510 (4.6%) were called active. The sample as a whole holds a higher share of actives than the screen did.
// note: answer is a bare numeric in %

Query block: Could you tell me which inhibition is on file for Cc1ccc(C)c(CN2CCC(CNC(=O)Nc3ccc(C)c(F)c3)CC2)c1 ?
Result block: -116

Query block: And Oc1cc(O)c2c(c1)OC(c1ccc(O)c(O)c1)C(O)C2 (stereo not drawn) ?
Result block: 84.5

Query block: And CCn1cc(CN2CCC(C(=O)Nc3cccc(-c4cccc(Cl)c4)c3)CC2)c(C)n1 ?
Result block: -396

Query block: And CCn1cc(CN2CCC(C(=O)Nc3cccc(-c4cccc(Cl)c4)c3)CC2)cn1 ?
Result block: -329

Query block: And Oc1ccc(CNc2ccccc2O)cc1 ?
Result block: 41.2

Query block: And CCN(c1ccccc1)S(=O)(=O)c1ccc2[nH]c(=O)[nH]c2c1 ?
Result block: 73.4

Query block: And COc1ccc(NC(=O)NC2CC3CCCC(C2)N3Cc2ccccc2)cc1 (stereo not drawn) ?
Result block: -171

Query block: And O=C(Nc1nc(-c2ccco2)c(-c2ccco2)s1)c1ccco1 ?
Result block: 74.3

Query block: And COc1cc(/C=N\Nc2nc(-c3cccs3)c(NC(C)=O)s2)ccc1O ?
Result block: 47

Query block: And O=C(Nc1cccc(F)c1)NC1CCCCCCC1 ?
Result block: -142

Query block: And O=[N+]([O-])c1cc(Cl)cc(/C=N/NC(=S)Nc2cc(S(=O)(=O)N3CCOCC3)ccc2Cl)c1O ?
Result block: 40.3

Query block: And COc1cccc(/C=N\NC(=O)C2=NNC(=O)C2C)c1O (stereo not drawn) ?
Result block: 60.2

Query block: And O=C(Nc1cccc(-c2cccc(Cl)c2)c1)C1CCN(C2CCC2)CC1 ?
Result block: -294

----------
# System: intestinal alkaline phosphatase [Mus musculus]
# test.summary: mouse intestinal phosphatase enzyme inhibition – biochemical, luminescence, single concentration, confirmation (AID 434971);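 further: plate controls were DMSO wells with enzyme for no effect and buffer wells lacking enzyme for full effect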
# condition.context: purified mouse IAP, CDP-Star luminescence, 30 min; at 10 µM; hits give high values
In all, about 11,000 compounds went through this assay and about 510 (4.6%) were called active. This is one part of a sample in which actives are shown more often than they occur.
For each record, write down the corresponding inhibition.

Query block: Could you tell me which inhibition is on file for Clc1ccccc1CSc1nnc(-c2ccco2)c(-c2ccco2)n1 ?
Result block: 71.8% (active)

Query block: And COc1ccccc1-n1c(-c2cc(-c3ccco3)[nH]n2)n[nH]c1=S ?
Result block: 68.7% (active)

Query block: And c1ccc(CSc2nnc(-c3ccco3)c(-c3ccco3)n2)cc1 ?
Result block: 69% (active)

Query block: And Cc1cccc(CN2CCC(CNC(=O)Nc3ccc(F)c(Cl)c3)CC2)c1 ?
Result block: -115% (inactive)

Query block: And c1ccc(-c2cc3c(NCC4COc5ccccc5O4)ncnc3s2)cc1 (stereo not given) ?
Result block: -97.1% (inactive)

Query block: And CCc1ccc(NC(=O)NC(C)c2ccc3c(c2)OCO3)cc1 (stereo not given) ?
Result block: -166% (inactive)

Query block: And C#CCOCCOCCOCCNc1nc(N2CCN(C(=O)CCCCCCCCCCNC(=O)Cn3cc(CCCCCN)nn3)CC2)nc(N2CCN(C(=O)CCCCCCCCCCNC(=O)[C@H](CO)n3cc(CCCSC)nn3)CC2)n1 ?
Result block: -153% (inactive)

Query block: And NS(=O)(=O)c1ccc(-c2ccc(/C=C3\SC(=O)NC3=O)o2)cc1 ?
Result block: 68.1% (active)

Query block: And Cc1ccc(Cc2cnc(N)s2)o1 ?
Result block: 58.5% (active)

Query block: And Cc1cc(NC(=O)Nc2ccc(Cl)cc2)n(-c2ccccc2)n1 ?
Result block: -107% (inactive)
